The origin of these recorded values is patent US20250195463A1.

# Tested on: MCF-7 (FGFR−)
# PROCEDURE_TEXT: MTT cytotoxicity assay
# CONDITION_DETAILS: human, 48 h
Where a SMILES comes first, the peptide text is derived from it. [ ]: non-standard residue; d: D form. The star is where a group is joined. Levulinoyl = CC(=O)CCC(=O)*

[
  {
    "COMPOUND": "CC(=O)CCC(=O)N[C@@H](C(=O)N[C@@H](CO)C(=O)N1CCC[C@H]1C(=O)N1CCC[C@@H]1C(=O)N[C@@H](CC(C)C)C(=O)N[C@H](C(=O)N[C@@H](CC(C)C)C(=O)NCC(=O)N[C@@H](CCC(N)=O)C(=O)N[C@@H](CC(C)C)C(=O)N[C@@H](CC(C)C)C(=O)N[C@@H](CO)C(N)=O)[C@@H](C)O)C(C)C [peptide P2] (Levulinoyl-[dV]SP[dP]LTLGQLLS-NH2)",
    "IC50": "> 100 µM"
  }
]

====

# PROCEDURE_TEXT: Stability in aqueous medium (dimethyl sulfoxide/Dulbecco's Modified Eagle Medium) by UV-Vis spectroscopy
# Assay type: physicochemical
# CONDITION_DETAILS: 5% dimethyl sulfoxide/95% Dulbecco's Modified Eagle Medium; time 2 h; band 292-296 nm (λmax in column head)
Consider the following compounds and their measured Relative variation of the maximum absorbance of the π→π* transitions readings.
READOUT_NAME: Relative variation of the maximum absorbance of the π→π* transitions (%)

[
  {
    "COMPOUND": "O=C(Cc1ccccc1)C1=C[CH]([Ru-]2([PH](c3ccccc3)(c3ccccc3)c3ccccc3)[n+]3ccccc3-c3cccc[n+]32)C=C1.O=S(=O)([O-])C(F)(F)F (stereo not drawn) [compound 9]",
    "UNIT_INFO": "%",
    "RESULT_NUMBER": "−0.2"
  },
  {
    "COMPOUND": "CCC(=O)C1=C[CH]([Ru-]2([PH](c3ccccc3)(c3ccccc3)c3ccccc3)[n+]3ccccc3-c3cccc[n+]32)C=C1.O=S(=O)([O-])C(F)(F)F (stereo not drawn) [compound 8]",
    "UNIT_INFO": "%",
    "RESULT_NUMBER": 0.0
  },
  {
    "COMPOUND": "CC(=O)C1=C[CH]([Ru-]2([PH](c3ccccc3)(c3ccccc3)c3ccccc3)[n+]3ccccc3-c3cccc[n+]32)C=C1.O=S(=O)([O-])C(F)(F)F (stereo not drawn) [compound 5]",
    "UNIT_INFO": "%",
    "RESULT_NUMBER": 1.0
  },
  {
    "COMPOUND": "CCOC(=O)Oc1cc[n+]2c(c1)-c1cc(OC)cc[n+]1[Ru-]2([CH]1C=CC=C1)[PH](c1ccccc1)(c1ccccc1)c1ccccc1.O=S(=O)([O-])C(F)(F)F (stereo not drawn) [compound 11]",
    "UNIT_INFO": "%",
    "RESULT_NUMBER": "−0.5"
  },
  {
    "COMPOUND": "NNC(=O)C1=C[CH]([Ru-]2([PH](c3ccccc3)(c3ccccc3)c3ccccc3)[n+]3ccccc3-c3cccc[n+]32)C=C1.O=S(=O)([O-])C(F)(F)F (stereo not drawn) [compound 4]",
    "UNIT_INFO": "%",
    "RESULT_NUMBER": "−0.6"
  },
  {
    "COMPOUND": "COc1cc[n+]2c(c1)-c1cc(O)cc[n+]1[Ru-]2([CH]1C=CC=C1)[PH](c1ccccc1)(c1ccccc1)c1ccccc1.O=S(=O)([O-])C(F)(F)F (stereo not drawn) [compound 10]",
    "UNIT_INFO": "%",
    "RESULT_NUMBER": "−3.1"
  }
]

====

# PROCEDURE_TEXT: Stability in aqueous medium (dimethyl sulfoxide/Dulbecco's Modified Eagle Medium) by UV-Vis spectroscopy
# Type: physicochemical
# CONDITION_DETAILS: 5% dimethyl sulfoxide/95% Dulbecco's Modified Eagle Medium; time 4 h; band 358-400 nm (λmax in column head)
READOUT_NAME: Relative variation of the maximum absorbance of the charge transfer bands

[
  {
    "MOLECULE": "CC(=O)C1=C[CH]([Ru-]2([PH](c3ccccc3)(c3ccccc3)c3ccccc3)[n+]3ccccc3-c3cccc[n+]32)C=C1.O=S(=O)([O-])C(F)(F)F (stereo not drawn)",
    "RESULT": "−4.1%"
  },
  {
    "MOLECULE": "CCC(=O)C1=C[CH]([Ru-]2([PH](c3ccccc3)(c3ccccc3)c3ccccc3)[n+]3ccccc3-c3cccc[n+]32)C=C1.O=S(=O)([O-])C(F)(F)F (stereo not drawn)",
    "RESULT": "−0.6%"
  },
  {
    "MOLECULE": "NNC(=O)C1=C[CH]([Ru-]2([PH](c3ccccc3)(c3ccccc3)c3ccccc3)[n+]3ccccc3-c3cccc[n+]32)C=C1.O=S(=O)([O-])C(F)(F)F (stereo not drawn)",
    "RESULT": "−0.7%"
  }
]

====

# PROCEDURE_TEXT: Stability in aqueous medium (dimethyl sulfoxide/Dulbecco's Modified Eagle Medium) by UV-Vis spectroscopy
# Type: physicochemical
# CONDITION_DETAILS: 5% dimethyl sulfoxide/95% Dulbecco's Modified Eagle Medium; time 0.75 h; band 292-296 nm (λmax in column head)
Each entry below carries its reported Relative variation of the maximum absorbance of the π→π* transitions.
READOUT_NAME: Relative variation of the maximum absorbance of the π→π* transitions (%)

[
  {
    "COMPOUND": "CC(=O)C1=C[CH]([Ru-]2([PH](c3ccccc3)(c3ccccc3)c3ccccc3)[n+]3ccccc3-c3cccc[n+]32)C=C1.O=S(=O)([O-])C(F)(F)F (stereo not drawn)",
    "RESULT_NUMBER": 0.3
  },
  {
    "COMPOUND": "CCC(=O)C1=C[CH]([Ru-]2([PH](c3ccccc3)(c3ccccc3)c3ccccc3)[n+]3ccccc3-c3cccc[n+]32)C=C1.O=S(=O)([O-])C(F)(F)F (stereo not drawn)",
    "RESULT_NUMBER": 0.0
  },
  {
    "COMPOUND": "O=C(Cc1ccccc1)C1=C[CH]([Ru-]2([PH](c3ccccc3)(c3ccccc3)c3ccccc3)[n+]3ccccc3-c3cccc[n+]32)C=C1.O=S(=O)([O-])C(F)(F)F (stereo not drawn)",
    "RESULT_NUMBER": "−0.5"
  },
  {
    "COMPOUND": "CCOC(=O)Oc1cc[n+]2c(c1)-c1cc(OC)cc[n+]1[Ru-]2([CH]1C=CC=C1)[PH](c1ccccc1)(c1ccccc1)c1ccccc1.O=S(=O)([O-])C(F)(F)F (stereo not drawn)",
    "RESULT_NUMBER": "−0.2"
  },
  {
    "COMPOUND": "NNC(=O)C1=C[CH]([Ru-]2([PH](c3ccccc3)(c3ccccc3)c3ccccc3)[n+]3ccccc3-c3cccc[n+]32)C=C1.O=S(=O)([O-])C(F)(F)F (stereo not drawn)",
    "RESULT_NUMBER": "−0.4"
  },
  {
    "COMPOUND": "COc1cc[n+]2c(c1)-c1cc(O)cc[n+]1[Ru-]2([CH]1C=CC=C1)[PH](c1ccccc1)(c1ccccc1)c1ccccc1.O=S(=O)([O-])C(F)(F)F (stereo not drawn)",
    "RESULT_NUMBER": "−1.9"
  }
]

====

We begin with a simple list: items and their reported Relative variation of the maximum absorbance of the π→π* transitions.
# PROCEDURE_TEXT: Stability in organic medium (dimethyl sulfoxide) by UV-Vis spectroscopy
# Format: physicochemical
# CONDITION_DETAILS: time 0.75 h, band 289-300 nm (λmax in column head)
READOUT_NAME: Relative variation of the maximum absorbance of the π→π* transitions (%)

[
  {
    "COMPOUND": "NNC(=O)C1=C[CH]([Ru-]2([PH](c3ccccc3)(c3ccccc3)c3ccccc3)[n+]3ccccc3-c3cccc[n+]32)C=C1.O=S(=O)([O-])C(F)(F)F (centres unmarked) [compound 4]",
    "UNIT_INFO": "%",
    "RESULT_NUMBER": 0.3
  },
  {
    "COMPOUND": "CCC(=O)C1=C[CH]([Ru-]2([PH](c3ccccc3)(c3ccccc3)c3ccccc3)[n+]3ccccc3-c3cccc[n+]32)C=C1.O=S(=O)([O-])C(F)(F)F (centres unmarked) [compound 8]",
    "UNIT_INFO": "%",
    "RESULT_NUMBER": 0.0
  },
  {
    "COMPOUND": "O=C(Cc1ccccc1)C1=C[CH]([Ru-]2([PH](c3ccccc3)(c3ccccc3)c3ccccc3)[n+]3ccccc3-c3cccc[n+]32)C=C1.O=S(=O)([O-])C(F)(F)F (centres unmarked) [compound 9]",
    "UNIT_INFO": "%",
    "RESULT_NUMBER": "−0.3"
  },
  {
    "COMPOUND": "CC(=O)C1=C[CH]([Ru-]2([PH](c3ccccc3)(c3ccccc3)c3ccccc3)[n+]3ccccc3-c3cccc[n+]32)C=C1.O=S(=O)([O-])C(F)(F)F (centres unmarked) [compound 5]",
    "UNIT_INFO": "%",
    "RESULT_NUMBER": "−0.4"
  },
  {
    "COMPOUND": "COc1cc[n+]2c(c1)-c1cc(O)cc[n+]1[Ru-]2([CH]1C=CC=C1)[PH](c1ccccc1)(c1ccccc1)c1ccccc1.O=S(=O)([O-])C(F)(F)F (centres unmarked) [compound 10]",
    "UNIT_INFO": "%",
    "RESULT_NUMBER": "−0.1"
  }
]
